system: COLO 205 colon; assay: NCI tumour cell line growth inhibition, 48 h
List of TGI values.

CCOC(=O)n1cc(C2=C(c3ccc(OC)c(OC)c3)COC2=O)c2ccccc21 = 0.94 µM
CCNC(=O)C#Cc1ccc2c(C(=Nc3ccc(CN(C)C)cc3)c3ccccc3)c(O)[nH]c2c1 = 0.0711 µM
CN(C)CC(O)c1ccc(/C=C/c2ccc(Cl)cc2)cc1 (stereo not drawn) = 3.17 µM
CC1(C)[C@@H](NOCCCN)CC[C@]2(C)[C@H]3C(=O)C=C4[C@@H]5C[C@](C)(C(=O)O)CC[C@]5(C)CC[C@@]4(C)[C@]3(C)CC[C@@H]12 = 6.34 µM
C=C(C)C(=O)O[C@@H]1C[C@@]2(C)O[C@@H]2C[C@H](O)/C(C)=C/[C@H]2OC(=O)C(=C)[C@@H]21 = > 100 µM

Prompt: Look up TGI: O=C1NC2(CCN(CCc3ccccc3)CC2)Oc2ccccc21
Response: > 100 µM

Prompt: Look up TGI: NCCNCCNCCN
Response: > 100 µM

Prompt: Look up TGI: N=c1oc2ccccc2cc1C(=O)NC12CC3CC(CC(C3)C1)C2
Response: 32.7 µM

Prompt: Look up TGI: O=c1c2cccnc2ncn1CCN1CCCCC1
Response: > 100 µM

Prompt: Look up TGI: c1ccc(Nc2ncc(-c3ccccc3)o2)cc1
Response: > 25 µM

Prompt: Look up TGI: CCN(CC)CCCNC(=O)c1cc(-c2nccn2C)nc2ccccc12
Response: > 100 µM

Prompt: Look up TGI: CN1CCN(C(=O)COc2ccc(C34CC5CC(CC(C5)C3)C4)cc2)CC1
Response: 20.5 µM

Prompt: Look up TGI: C/C(CN1C(=O)c2ccccc2C1=O)=N\NS(=O)(=O)c1ccc(Cl)cc1
Response: > 100 µM

Prompt: Look up TGI: O=C(/C=C/c1c(O)ccc2ccccc12)c1ccc([N+](=O)[O-])cc1
Response: > 72.5 µM

Prompt: Look up TGI: O=C1c2ccccc2-n2nnnc2C2CSCN12 (stereo not drawn)
Response: > 100 µM

Prompt: Look up TGI: O=C(NC1CCCCC1)NS(=O)(=O)c1ccc(N2N=C3c4ccccc4CC3C2c2ccc(Cl)cc2)cc1 (stereo not drawn)
Response: 34 µM

Prompt: Look up TGI: Br[Se]c1ccccn1
Response: 30.8 µM

Prompt: Look up TGI: Clc1ccc2cccc3c2c1C1OC3c2ccccc21 (stereo not drawn)
Response: > 100 µM

Prompt: Look up TGI: COc1cc2c(cc1OC)C(Cl)C(c1ccc(F)cc1)=C2Cl (stereo not drawn)
Response: 31 µM

Prompt: Look up TGI: CN(C)CC1CCCC/C1=N/O (stereo not drawn)
Response: > 100 µM

Prompt: Look up TGI: CCOC(=O)c1nnn(CCCCO)c1C(=O)OCC
Response: > 100 µM

Prompt: Look up TGI: Cc1ccc(S(=O)(=O)N2CC2CCCCC=O)cc1 (stereo not drawn)
Response: > 100 µM

Prompt: Look up TGI: NC(N)=NS(=O)(=O)c1ccc(N=Nc2c(O)c(C(=O)O)cc3ccccc23)cc1
Response: > 100 µM

----------
system: NCI-H522 lung; experiment: NCI tumour cell line growth inhibition, 48 h
List of TGI values.

O=S(=O)(O)c1cc(N=Nc2c(O)ccc3ccccc23)cc2c(S(=O)(=O)O)cccc12 = > 100 µM
CN(C)c1ccc(/C=N/NC(=S)Nc2ccccc2)cc1 = > 100 µM
CC(N)/C(N)=N/O (stereo unspecified) = > 100 µM
COc1cc2c(/C=C3/C(=O)Nc4cccc(Cl)c43)c(Cl)[nH]c2cc1C = 6.74 µM
CC(=O)Nc1cc2ccc(=O)oc2cc1Cl = > 100 µM
COc1cc(C2C(Cl)C(=O)N2n2cnc3ccccc3c2=O)ccc1O (stereo unspecified) = > 100 µM
C=CCNC(=S)N/C=C(\C#N)C(N)=O = > 100 µM
COC(=O)c1cccc(C)c1C1CN=NC12Cc1cc(C)cc(C)c1C2=O (stereo unspecified) = > 100 µM

Prompt: Look up TGI: Nc1nc(Cl)cc(OCC2(CO)CC=CC2)n1
Response: > 100 µM

Prompt: Look up TGI: CN1CCN(c2ccc(Nc3ncc(Cl)c(NC[C@@H]4CCCO4)n3)cc2)CC1
Response: 10.9 µM

Prompt: Look up TGI: COc1ccc(S(=O)(=O)n2c3c(c4ccccc42)[C@@H]2[C@@H](CCCN2C(=O)CS(=O)c2ccc(C)cc2)[C@H](Cl)C3)cc1 (stereo partly specified)
Response: > 100 µM

----------
system: NCI/ADR-RES ovarian; experiment: NCI tumour cell line growth inhibition, 48 h
recorded_metric: TGI

O=C1c2ccccc2C(=O)c2c(/C=C\N3CCCCC3)ccnc21 = > 95.4 µM
Cc1ccc(-c2nc(N3CCNCC3)c3oc(-c4ccc(C)cc4)nc3n2)cc1 = 3.81 µM

Prompt: Look up TGI: COC(=O)[C@]12CC[C@@H](C)[C@H](C)[C@@H]1C1=CC[C@@H]3[C@@]4(C)C[C@@H](O)[C@H](O)[C@@](C)(CO)[C@@H]4[C@H](O)C[C@@]3(C)[C@]1(C)CC2
Response: 35.1 µM

Prompt: Look up TGI: Cc1cc(Nc2ccc(C)c(Cl)c2)n2nc(C(F)(F)F)nc2n1
Response: > 100 µM

Prompt: Look up TGI: O=C(O)Cc1ccc([N+](=O)[O-])cc1[N+](=O)[O-]
Response: > 100 µM

Prompt: Look up TGI: CN1CCN(C(=O)COc2ccc(C34CC5CC(CC(C5)C3)C4)cc2)CC1
Response: 84.4 µM

Prompt: Look up TGI: CC1(C)[C@@H](Cn2cc(I)c(=O)[nH]c2=O)CC[C@@]1(C)CO
Response: > 100 µM

----------
List of TGI values.
tested on: HS 578T breast; experiment: NCI tumour cell line growth inhibition, 48 h

Here is how some molecules turned out for TGI.
CC(=O)OCc1ccc2c(c1)C(O)NC(=O)O2 (stereo not given) = > 100 µM
Cc1ccc(Nc2nc(NNC(=O)Cc3ccccc3)nc(NNC(=O)c3ccncc3)n2)cc1 = > 10 µM
Cc1cn(C2OC(CO[Si](C)(C)C(C)(C)C)C(N(C)O[Si](C)(C)C(C)(C)C)C2[Se]c2ccccc2)c(=O)[nH]c1=O (stereo not given) = 7.58 µM
CON(C)C(=O)C(C)N(Cc1ccccc1)Cc1ccccc1 (stereo not given) = > 100 µM
C=CCNC(=S)N/C=C(\C#N)C(N)=O = > 100 µM

Prompt: Look up TGI: CC1(C)[C@@H](Cn2cc(I)c(=O)[nH]c2=O)CC[C@@]1(C)CO
Response: > 100 µM

Prompt: Look up TGI: Cc1nnc2ccnn2c1C
Response: > 100 µM

Prompt: Look up TGI: COc1cc2c(cc1OC)C(Cl)C(c1ccc(F)cc1)=C2Cl (stereo not given)
Response: > 100 µM

Prompt: Look up TGI: COC(=O)c1cc2oc(/C=C3/SC(=S)N(NC(C)=O)C3=O)cc2n1C
Response: 59.2 µM

Prompt: Look up TGI: N#CSC#CCCC#CSC#N
Response: 76.2 µM

Prompt: Look up TGI: CSC(=O)c1sc(SC)[n+](-c2ccccc2)c1O
Response: > 100 µM

Prompt: Look up TGI: O=C(NC1CCCCC1)NS(=O)(=O)c1ccc(N2N=C3c4ccccc4CC3C2c2ccc(Cl)cc2)cc1 (stereo not given)
Response: 37.2 µM

Prompt: Look up TGI: NC(=S)N/N=C1\c2cc(Cl)ccc2-c2c1cc(Cl)cc2[N+](=O)[O-]
Response: > 100 µM

Prompt: Look up TGI: C[N+]12C=CC=C1C(N1CCCC1)c1scc(-c3ccc(Br)cc3)c12 (stereo not given)
Response: 9.6 µM

Prompt: Look up TGI: CC1=C/C(=N\NC(N)=S)C(C(O)(C(F)(F)F)C(F)(F)F)C(C)(C)C1 (stereo not given)
Response: > 10 µM

Prompt: Look up TGI: CCNC(=O)C#Cc1ccc2c(C(=Nc3ccc(CN(C)C)cc3)c3ccccc3)c(O)[nH]c2c1
Response: 1.66 µM

Prompt: Look up TGI: C[C@]12c3c4cc(NC(=O)C(=O)NCc5ccc(-c6ccccn6)nc5)cc3Oc3cc(NC(=O)C(=O)NCc5ccc(-c6ccccn6)nc5)cc(c31)OC1C=C(NC(=O)C(=O)NCc3ccc(-c5ccccn5)nc3)C=C(O4)C12 (stereo not given in full)
Response: > 100 µM

----------
test system: RPMI-8226 leukemia; experiment: NCI tumour cell line growth inhibition, 48 h
List of TGI values.
Express it in µM; write the number only.

Here is how some compounds turned out for TGI.
COC(=O)[C@]1(C)CCC[C@@]2(C)C1CC[C@@]13C=C(C(C)C)[C@@H](CC1=O)CC23 (stereo partly specified) = 40.1
Cc1ccc(C(=O)OC(C(=O)O)C(OC(=O)c2ccc(C)cc2)C(=O)O)cc1 (stereo unspecified) (tested in a mixture with another compound) = 9.23
O=C1OCC2=C1C(c1cccc(Br)c1)c1cc3c(cc1N2CCO)OCCO3 (stereo unspecified) = 14
N=c1oc2ccccc2cc1C(=O)NC12CC3CC(CC(C3)C1)C2 = 31.1
CCCC/C=C/C=C/C=C/CCCCCCCC(=O)OCC(COC(=O)CCCCCCC/C=C/C1C=CC(CCCC)C(C(=O)O)C1C(=O)O)OC(=O)CCCCCCC/C=C/C=C/C=C/CCCC (stereo unspecified) (tested in a mixture with another compound) = 15

Prompt: Look up TGI: O=C(O)C1C2c3ccccc3C(c3ccccc32)C1C(=O)NCC1CC1 (stereo unspecified)
Response: 85.3

Prompt: Look up TGI: CN(C)CC(O)c1ccc(/C=C/c2ccc(Cl)cc2)cc1 (stereo unspecified)
Response: 22.4

Prompt: Look up TGI: OC(c1cc(C(F)(F)F)nc2c(C(F)(F)F)cccc12)C1CCCCN1 (stereo unspecified)
Response: 11.5

Prompt: Look up TGI: COCCOCOC(CCCCO)c1cc(C)c(O[Si](C)(C)C(C)(C)C)c(C)c1 (stereo unspecified)
Response: 11.6
